Collected inhibition values appear next to each entry.
ASSAYED_TARGET: Melanin-concentrating hormone receptor 1 (Homo sapiens)
EXPERIMENT_NOTES: Displacement of [125I]-MCH (4 to 19) from human MCH1 receptor expressed in CHO cell membranes at 0.1 uM after 1 hr by liquid scintillation counting analysis relative to control
MEASURED_PROPERTY: inhibition (%)

* Cc1c2cc(-n3ccc(OCc4ccc(F)cc4)cc3=O)ccc2nn1C1CC1 | 72
* Cc1c2cc(-n3ccc(OCc4csc(C(F)(F)F)n4)cc3=O)ccc2nn1C1CC1 | 50
* Cc1c2cc(-n3ccc(OCc4csc(C(F)(F)F)c4)cc3=O)ccc2nn1C1CC1 | 77
* Cc1c2cc(-n3ccc(OCc4ccc(Cl)cc4)cc3=O)ccc2nn1C | 72
